# Tested on: Thymidine kinase (Human herpesvirus 2)
# assay remarks: Antiviral activity against thymidine kinase from Herpes simplex virus type-2 (333 Strain) infected HeLa (Bu-25-TK-) cells at 500 uM concentration
Quick reference: inhibition of the listed items.
In your response, put the unit directly after the numeric value.

Here's what some known entries look like.
[[record]]
structure_string = "Cc1cn([C@@H]2O[C@H](CO)[C@@H](CO)[C@H]2O)c(=O)[nH]c1=O"
reported_property = "inhibition"
value_measured = "0%"

[[record]]
structure_string = "Cc1cn([C@H]2C[C@H](CO)[C@@H](CO)O2)c(=O)[nH]c1=O"
reported_property = "inhibition"
value_measured = "0%"

[[record]]
structure_string = "Cc1cn([C@@H]2O[C@H](CO)[C@@H](CF)[C@H]2O)c(=O)[nH]c1=O"
reported_property = "inhibition"
value_measured = "4.9%"

[[record]]
structure_string = "Cc1cn([C@@H]2O[C@H](CO)[C@@H](CF)[C@@H]2O)c(=O)[nH]c1=O"
reported_property = "inhibition"
value_measured = "10.9%"

[[record]]
structure_string = "Cc1cn([C@H]2C[C@H](CF)[C@@H](CO)O2)c(=O)[nH]c1=O"
reported_property = "inhibition"
value_measured = "4%"


Please find the next compound below.
Query: Item under review: Cc1cn([C@@H]2O[C@H](CO)[C@@H](CO)[C@@H]2O)c(=O)[nH]c1=O . Reported inhibition?
Reply: 6.9%

----------
# Test system: Thymidine kinase (Human herpesvirus 1)
# assay remarks: Antiviral activity against thymidine kinase from Herpes simplex virus type-1 (KOS Strain) infected HeLa (Bu-25-TK-) cells at 500 uM concentration
reported property: inhibition (%)
Could you give me the number in %? Just the number is fine.

Query: Item under review: Cc1cn([C@@H]2O[C@H](CO)[C@@H](CF)[C@H]2O)c(=O)[nH]c1=O . Reported inhibition?
Reply: 7

Query: Then this molecule: Cc1cn([C@H]2C[C@H](CO)[C@@H](CO)O2)c(=O)[nH]c1=O
Reply: 59.1

Query: Then this molecule: Cc1cn([C@@H]2O[C@H](CO)[C@@H](CO)[C@H]2O)c(=O)[nH]c1=O
Reply: 2.6

Query: Then this molecule: Cc1cn([C@@H]2O[C@H](CO)[C@@H](CF)[C@@H]2O)c(=O)[nH]c1=O
Reply: 13.8

Query: Then this molecule: Cc1cn([C@@H]2O[C@H](CO)[C@@H](CO)[C@@H]2O)c(=O)[nH]c1=O
Reply: 11.7

Query: Then this molecule: Cc1cn([C@H]2C[C@H](CF)[C@@H](CO)O2)c(=O)[nH]c1=O
Reply: 85.2

All figures here come from ChEMBL document CHEMBL1127086.
